Recorded values, source ChEMBL document CHEMBL1131442.

Assay system: UniProt P20272
Sequence (P20272 whole entry): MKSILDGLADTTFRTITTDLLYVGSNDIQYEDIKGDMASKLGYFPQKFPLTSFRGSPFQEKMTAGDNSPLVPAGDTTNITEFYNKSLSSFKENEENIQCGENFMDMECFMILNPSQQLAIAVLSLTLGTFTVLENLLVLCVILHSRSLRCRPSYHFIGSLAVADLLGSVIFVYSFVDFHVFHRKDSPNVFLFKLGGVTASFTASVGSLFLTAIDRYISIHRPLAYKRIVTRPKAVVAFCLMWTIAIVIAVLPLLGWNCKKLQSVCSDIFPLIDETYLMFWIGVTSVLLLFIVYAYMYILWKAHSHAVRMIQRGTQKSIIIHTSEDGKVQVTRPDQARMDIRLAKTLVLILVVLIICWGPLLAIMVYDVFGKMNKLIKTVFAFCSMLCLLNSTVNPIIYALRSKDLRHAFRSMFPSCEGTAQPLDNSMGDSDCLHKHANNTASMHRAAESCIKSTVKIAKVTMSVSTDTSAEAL
Experiment: Binding affinity towards cannabinoid receptor 1 from rat forebrain membranes in the presence of phenylmethanesulfonylfluoride (PMSF) using 0.8 nM [3H]CP-55940 as radioligand
Parameters: species or system Membrane
Assignment: determine reported Ki for the given molecules.
Show the value, then the unit it is measured in.

Check out these entries, answers already filled in.
{"Molecule": "CCCCC/C=C\\C/C=C\\C/C=C\\C/C=C\\CCCC(=O)NC(C)CC (stereo not given)", "Measurement label": "Ki", "Assay result": "83.2 nM"}
{"Molecule": "CCCCC/C=C\\C/C=C\\C/C=C\\C/C=C\\CCCC(=O)NCC(C)C", "Measurement label": "Ki", "Assay result": "90.2 nM"}
{"Molecule": "CCCCC/C=C\\C/C=C\\C/C=C\\C/C=C\\CCCC(=O)NC[C@H](C)O", "Measurement label": "Ki", "Assay result": "35.6 nM"}
{"Molecule": "CCCCC/C=C\\C/C=C\\C/C=C\\C/C=C\\CCCC(=O)N[C@@H](C)CC", "Measurement label": "Ki", "Assay result": "287 nM"}
{"Molecule": "CCCCC/C=C\\C/C=C\\CCCCCCCC(=O)N[C@H](C)CO", "Measurement label": "Ki", "Assay result": "21000 nM"}
{"Molecule": "CCCCC/C=C\\C/C=C\\C/C=C\\C/C=C\\CCCC(=O)NCCCCl", "Measurement label": "Ki", "Assay result": "25.6 nM"}

Record Ki per entry; entries follow.
1. CCCCC/C=C\C/C=C\C/C=C\C/C=C\CCCC(=O)N[C@H](C)CC
2. C#CCNC(=O)CCC/C=C\C/C=C\C/C=C\C/C=C\CCCCC
3. CCCCC/C=C\C/C=C\C/C=C\C/C=C\CCCC(=O)NCCCl
4. CCCCC/C=C\C/C=C\C/C=C\C/C=C\CCCC(=O)NC[C@@H](C)O
5. CCCCCCCC/C=C\CCCCCCCC(=O)N[C@H](C)CO
6. CCCCC/C=C\C/C=C\C/C=C\C/C=C\CCCC(=O)NC(C)(C)C
7. C=CCNC(=O)CCC/C=C\C/C=C\C/C=C\C/C=C\CCCCC

Reply text:
["73.6 nM", "10.8 nM", "5.29 nM", "130 nM", "19000 nM", "51.2 nM", "9.91 nM"]

Please state Ki for every molecule in the list that follows.
1. CCCCC/C=C\C/C=C\C/C=C\C/C=C\CCCC(=O)NCCF
2. CCCCC/C=C\C/C=C\C/C=C\C/C=C\CCCC(=O)NCC(F)(F)F

Reply text:
["26.7 nM", "36.2 nM"]

###

Could you please report measured Emax for the items listed next?
Species on record: Rattus norvegicus
Experiment: Maximal stimulation of [35S]GTP-gamma-S, binding in rat microsomal membranes expressed as Emax
Format: functional
Give bare numbers, in %.

{"Compound": "CCCCCCC(C)(C)c1ccc([C@@H]2C[C@H](O)CC[C@H]2CCCO)c(O)c1", "Emax (%)": 145}
{"Compound": "Cc1c(C(=O)c2cccc3ccccc23)c2cccc3c2n1[C@H](CN1CCOCC1)CO3", "Emax (%)": 150}
{"Compound": "CCCCC/C=C\\C/C=C\\C/C=C\\C/C=C\\CCCC(=O)N[C@H](C)CO [METHANANDAMIDE]", "Emax (%)": 148}
{"Compound": "CCCCC/C=C\\C/C=C\\C/C=C\\C/C=C\\CCCC(=O)NCCCl", "Emax (%)": 162}

Now for another entry.
Inquiry: Give a short answer stating reported Emax for C#CCNC(=O)CCC/C=C\C/C=C\C/C=C\C/C=C\CCCCC .
Reply text: 143

###

Assay system: Cannabinoid receptor 2 (Mus musculus)
pKi: −log10 of the molar value.
Definition: the class of an entry is the range in Low (below 5), Mid (5 to below 6), High (6 or more) that contains its pKi.

{"Compound": "CCCCCCCC/C=C\\CCCCCCCC(=O)NCCO [OLEOYLETHANOLAMIDE]", "Assay system": "Cannabinoid receptor 2 (Mus musculus)", "Group label": "Low"}
{"Compound": "CCCCC/C=C\\C/C=C\\C/C=C\\C/C=C\\CCCC(=O)NC(C)CC (stereo unspecified)", "Assay system": "Cannabinoid receptor 2 (Mus musculus)", "Group label": "Mid"}
{"Compound": "CCCCC/C=C\\C/C=C\\C/C=C\\C/C=C\\CCCC(=O)NCCCl", "Assay system": "Cannabinoid receptor 2 (Mus musculus)", "Group label": "High"}
{"Compound": "CCCCC/C=C\\C/C=C\\C/C=C\\C/C=C\\CCCC1=N[C@H](C)CO1", "Assay system": "Cannabinoid receptor 2 (Mus musculus)", "Group label": "Low"}
{"Compound": "CCCCC/C=C\\C/C=C\\C/C=C\\C/C=C\\CCCC(=O)NCCCCl", "Assay system": "Cannabinoid receptor 2 (Mus musculus)", "Group label": "High"}
{"Compound": "C#CCNC(=O)CCC/C=C\\C/C=C\\C/C=C\\C/C=C\\CCCCC", "Assay system": "Cannabinoid receptor 2 (Mus musculus)", "Group label": "High"}
{"Compound": "C=CCNC(=O)CCC/C=C\\C/C=C\\C/C=C\\C/C=C\\CCCCC", "Assay system": "Cannabinoid receptor 2 (Mus musculus)", "Group label": "High"}
{"Compound": "CCCCC/C=C\\C/C=C\\C/C=C\\C/C=C\\CCCC(=O)NC[C@@H](C)O", "Assay system": "Cannabinoid receptor 2 (Mus musculus)", "Group label": "Mid"}

Inquiry: // return the class label for CCCCC/C=C\C/C=C\C/C=C\C/C=C\CCCCNC(=O)COC(C)=O
Reply text: Low

Inquiry: Please report the category associated with CCCCC/C=C\C/C=C\C/C=C\C/C=C\CCCC(=O)N[C@@H](C)CC , nothing else.
Reply text: Mid

Inquiry: Exam item: assign CCCCC/C=C\C/C=C\CCCCCCCC(=O)N[C@H](C)CO to the correct category.
Reply text: Low

Inquiry: Sort into band: CCCCC/C=C\C/C=C\CCCCCCCC(=O)NCCO [LINOLEOYLETHANOLAMIDE]
Reply text: Low

Inquiry: Category lookup for the compound CCCCCCCC/C=C\CCCCCCCC(=O)N[C@H](C)CO
Reply text: Low

###

Assay system: UniProtKB P20272
Experiment: Binding affinity towards cannabinoid receptor 1 from rat forebrain membranes in the absence of phenylmethanesulfonylfluoride (PMSF) using 0.8 nM [3H]CP-55940 as radioligand
Design: species or system Membrane
Measurement label: Ki (nM)
Answers are plain numbers, in nM.

Here is how some compounds turned out for Ki.
{"Sample smiles": "CCCCC/C=C\\C/C=C\\C/C=C\\C/C=C\\CCCC(=O)N[C@H](C)CC", "Assay system": "UniProtKB P20272", "Ki (nM)": 143}
{"Sample smiles": "CCCCC/C=C\\C/C=C\\C/C=C\\C/C=C\\CCCC(=O)NCCCCl", "Assay system": "UniProtKB P20272", "Ki (nM)": 387}
{"Sample smiles": "CCCCC/C=C\\C/C=C\\C/C=C\\C/C=C\\CCCC(=O)NCC(C)C", "Assay system": "UniProtKB P20272", "Ki (nM)": 98.1}

Continue with the compound presented below.
Inquiry: Please indicate Ki recorded for CCCCC/C=C\C/C=C\C/C=C\C/C=C\CCCC(=O)NC[C@@H](C)O
Reply text: 630

###

Assay system: Cannabinoid receptor 2 (Mus musculus, UniProt P47936)
Sequence (P47936 whole entry): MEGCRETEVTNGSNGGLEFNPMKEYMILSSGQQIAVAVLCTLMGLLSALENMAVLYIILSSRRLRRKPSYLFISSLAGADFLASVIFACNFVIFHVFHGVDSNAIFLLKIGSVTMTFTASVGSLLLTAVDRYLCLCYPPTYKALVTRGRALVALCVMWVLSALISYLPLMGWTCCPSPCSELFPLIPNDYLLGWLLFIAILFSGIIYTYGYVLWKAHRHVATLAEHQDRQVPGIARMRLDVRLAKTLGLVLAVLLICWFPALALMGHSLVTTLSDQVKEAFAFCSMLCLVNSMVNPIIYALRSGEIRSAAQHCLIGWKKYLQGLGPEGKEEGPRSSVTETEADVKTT
Provide the recorded pKi for the entries that follow.
One number for each entry, as −log10 of the molar value.

Here's what some known entries look like.
{"Compound": "CCCCC/C=C\\C/C=C\\C/C=C\\C/C=C\\CCCC(=O)NC(C)(C)C", "Assay result": 5.94}
{"Compound": "CCCCC/C=C\\C/C=C\\C/C=C\\C/C=C\\CCCC(=O)NCCF", "Assay result": 6.04}
{"Compound": "CCCCC/C=C\\C/C=C\\C/C=C\\C/C=C\\CCCC(=O)NCC(C)C", "Assay result": 6.08}

Give measured pKi for every item shown.
1. CCCCC/C=C\C/C=C\C/C=C\C/C=C\CCCC(=O)NCC(F)(F)F
2. CCCCC/C=C\C/C=C\C/C=C\C/C=C\CCCC(=O)NC[C@H](C)O
3. CCCCC/C=C\C/C=C\C/C=C\C/C=C\CCCC(=O)N[C@H](C)CO [METHANANDAMIDE]
4. CCCCC/C=C\C/C=C\C/C=C\C/C=C\CCCC(=O)N[C@H](C)CC
5. CCCCC/C=C\C/C=C\C/C=C\C/C=C\CCCC(=O)N[C@@H](C)CO

Reply text:
1. 6.14
2. 6.11
3. 6.06
4. 5.88
5. 5.09
